Data provenance is ChEMBL document CHEMBL2311262.

biological target: Gamma-secretase; assay: Inhibition of gamma secretase-mediated amyloid beta42 production in HEK293 cells transfected with human APPSOW and APPLON after 5 hrs by sandwich immunoassay; assay type: cell-based
measurement.name: IC50
Give me the value, and tack the unit on after it.

Q: Reported IC50, compound CCCS(=O)(=O)CC[C@@H]1OCC[C@@]2(S(=O)(=O)c3ccc(Cl)cc3)c3c(F)ccc(F)c3OC[C@@H]12 : ____
Result: 5 nM

Q: Reported IC50, compound O=S(=O)(CC[C@@H]1OCC[C@@]2(S(=O)(=O)c3ccc(Cl)cc3)c3c(F)ccc(F)c3OC[C@@H]12)c1ncn[nH]1 : ____
Result: 4.7 nM

Q: Reported IC50, compound O=C(O)CS(=O)(=O)CC[C@@H]1OCC[C@@]2(S(=O)(=O)c3ccc(Cl)cc3)c3c(F)ccc(F)c3OC[C@@H]12 : ____
Result: 22 nM

Q: Reported IC50, compound O=S(=O)(CC[C@@H]1OCC[C@@]2(S(=O)(=O)c3ccc(Cl)cc3)c3c(F)ccc(F)c3OC[C@@H]12)c1ncc[nH]1 : ____
Result: 1.8 nM
